Kindly state EC50 (nM), IL-8 secretion by primary human keratinocytes, 10 ng/ml human IL-36α for each of the entries shown.
Target: T1, human IL-36R (on cells) (human, UniProt Q9HB29 20-575)
T1 sequence (looked up): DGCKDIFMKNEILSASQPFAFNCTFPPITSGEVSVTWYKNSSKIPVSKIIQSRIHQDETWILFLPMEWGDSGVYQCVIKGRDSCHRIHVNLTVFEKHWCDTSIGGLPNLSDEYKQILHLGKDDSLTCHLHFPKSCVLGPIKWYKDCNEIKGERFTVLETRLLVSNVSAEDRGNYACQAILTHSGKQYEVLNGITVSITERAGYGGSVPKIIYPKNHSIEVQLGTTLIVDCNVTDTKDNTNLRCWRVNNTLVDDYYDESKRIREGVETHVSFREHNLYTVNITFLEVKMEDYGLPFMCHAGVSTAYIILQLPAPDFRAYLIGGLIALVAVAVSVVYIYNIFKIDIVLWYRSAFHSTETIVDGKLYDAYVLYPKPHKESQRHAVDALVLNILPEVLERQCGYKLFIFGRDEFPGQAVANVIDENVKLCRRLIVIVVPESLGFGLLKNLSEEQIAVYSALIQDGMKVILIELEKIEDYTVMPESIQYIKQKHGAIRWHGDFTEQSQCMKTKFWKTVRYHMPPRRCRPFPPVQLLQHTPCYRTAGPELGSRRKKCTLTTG
Test: cell-based or functional assay
Answers are plain numbers, in nM.

| Binder | Observed Value |
| --- | --- |
| Hzd 5D3 (APE6060) (antibody, V domains shown, also called 5D3 Humanized) VH: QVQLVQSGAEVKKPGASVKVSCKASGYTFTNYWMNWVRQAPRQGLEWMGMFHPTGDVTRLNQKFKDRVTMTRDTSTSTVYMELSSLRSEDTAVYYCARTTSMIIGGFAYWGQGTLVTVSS VL: DIVMTQTPLSLSVTPGQPASISCRSSKSLLHRNAITYFYWYLQKPGQPPQLLIYQMSNLASGVPDRFSGSGSGTDFTLKISRVEAEDVGVYYCAQNLELPLTFGGGTKVEIK | 0.08 |

# ---- query binder ----
INPUT: What value of measured EC50 (nM), IL-8 secretion by primary human keratinocytes, 10 ng/ml human IL-36α is listed for Hzd 5D3 (APE6194) (antibody, V domains shown, also called 5D3 Humanized) VH: QVQLVQSGAEVKKPGASVKVSCKASGYTFTNYWMNWVRQAPRQGLEWMGMFHPYGDVTRLNQKFKDRVTMTRDTSTSTVYMELSSLRSEDTAVYYCARTTSMIIGGFAYWGQGTLVTVSS VL: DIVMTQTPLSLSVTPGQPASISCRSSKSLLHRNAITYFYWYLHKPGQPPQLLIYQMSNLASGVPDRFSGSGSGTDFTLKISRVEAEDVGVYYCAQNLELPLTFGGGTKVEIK ?
OUTPUT: 0.105
